# Tested on: Community 9
# EXPERIMENTAL DETAILS: relative growth (AUC of 72 h growth curve relative to DMSO control, dAUC) (ratio); higher = more growth (less inhibition), active = hit call of the paper;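 active = growth AUC significantly below the DMSO wells by Dunnett test; inactive = the rest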
# ASSAY CONTEXT: 20 µM
Your response should consist of one outcome taken from true (1) (active), false (0) (inactive)

For orientation, consider the following solved cases.
COMPOUND	QUALITATIVE LABEL
Fc1ccc([C@]2(Cn3cncn3)O[C@H]2c2ccccc2Cl)cc1 (racemic)	false (0)
CNC(=O)Oc1cccc(/N=C/N(C)C)c1	false (0)
C#CCOc1ccc(CCNC(=O)C(OCC#C)c2ccc(Cl)cc2)cc1OC (stereo not given)	false (0)
ClC1C(Cl)C(Cl)C(Cl)C(Cl)C1Cl (stereo not given)	false (0)
CC(C)OC(=O)C(C(=O)OC(C)C)=C1SCCS1	false (0)

Exercise: Field: outcome | Entry: CNC(=O)/C=C(\C)OP(=O)(OC)OC
Solution: false (0)

Exercise: Field: outcome | Entry: O=C1C2CC=CCC2C(=O)N1SC(Cl)(Cl)Cl (stereo not given)
Solution: true (1)

Exercise: Field: outcome | Entry: Nc1c(Cl)c(F)nc(OCC(=O)O)c1Cl
Solution: false (0)
